test: AUC in Beagle dog at 1 mg/kg, po; details: in vivo
METRIC NAME: AUC (ng·h/mL)
I only need the number, in ng·h/mL, no unit after it.

Exercise: Tell me AUC reported for C[C@@]1(c2cc(NC(=O)c3ccc(C#N)cn3)ccc2F)Cc2c(ccnc2F)C(N)=N1
Key: 3890

====

experiment: Tmax in Beagle dog at 1 mg/kg, po; details: in vivo
METRIC NAME: Tmax (h)
I only need the number, in h, no unit after it.

Exercise: Tell me Tmax reported for C[C@@]1(c2cc(NC(=O)c3ccc(C#N)cn3)ccc2F)Cc2c(ccnc2F)C(N)=N1
Key: 4.3
